# System: E28 (patient-derived glioblastoma stem cells of classical subtype);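 further: cell Painting imaging in 384-well plates, CellProfiler features reduced to at least 20 principal components, Euclidean distance versus same-plate DMSO vehicle wells (0.1% v/v), median over six images per well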
# experiment: phenotypic distance (Euclidean, principal components) from DMSO controls (arbitrary units); higher = stronger morphological change
# experimental.conditions: 4.1 nM; exposure time: 72 h
Structures can show the parent of a compound that is named as a salt.
Give measured phenotypic distance for each item. Keep answers brief.
Give bare numbers.

The following compounds have reported results that may help.
CCCCC1C(=O)N(c2ccccc2)N(c2ccc(O)cc2)C1=O (centres undefined) = 0.723
CC[C@]1(O)C[C@@H]2CN(CCc3c([nH]c4ccccc34)[C@@](C(=O)OC)(c3cc4c(cc3OC)N(C)[C@H]3[C@@](O)(C(=O)OC)[C@H](OC(C)=O)[C@]5(CC)C=CCN6CC[C@]43[C@@H]65)C2)C1 [Vinblastine sulfate] = 3.12

Batch lookup, phenotypic distance per entry.
1. CC[C@H]1CN2CCc3cc(OC)c(OC)cc3[C@@H]2C[C@@H]1C[C@H]1NCCc2cc(OC)c(OC)cc21 [Emetine dihydrochloride hydrate]
2. Nc1nc2n[nH]nc2c(=O)[nH]1

1: 0.561; 2: 0.671
